Experiment: chemical genetic growth profiling, strain panel (AID 1159580);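 note: tested at 20 µM; growth read once vehicle control cultures reached saturation at 30 °C; 1 = growth at the plate median or of vehicle wells; lower values mean less growth of the strain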
Details: S. cerevisiae deletion strains, growth OD, locus YPL051W, strain arl3, stronger effect = lower value
Among all 5,500 compounds or so, about 2,000 (36%) were called active. Inconclusive results (about 18%) are left out. Some of the results follow.
measurement-kind: normalized growth

{"columns": ["compound-structure-string", "value-observed"],
 "data": [
  ["Cc1cc(C(C)(C)C)c(O)c(C)c1CC1=NCCN1", 1.02],
  ["COc1cc2cc3c4cc(OC)c(OC)cc4cc[n+]3c(C)c2cc1OC", 1.02],
  ["COC(=O)[C@]1(C)CC[C@]2(C)CC[C@]3(C)C4=CC=C5C(=CC(=O)C(O)=C5C)[C@]4(C)CC[C@@]3(C)[C@@H]2C1", 0.448],
  ["CC1=C(O)C(=O)C=C2C1=CC=C1[C@@]2(C)CC[C@@]2(C)[C@@H]3C[C@](C)(C(=O)O)CC[C@]3(C)CC[C@]12C", 0.209]
]}
